assay.method.text: protein stability index of a GFP-peptide fusion (GPS, HEK-293T) (PSI 1-6); higher = more stable;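 further: 24-mer peptide tiles fused after GFP, lentivirally expressed, FACS-sorted into six equal bins by GFP/DsRed ratio, decoded by Illumina sequencing, PSI is the read-weighted mean bin number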
condition.info: treatment: MLN4924 1 uM, 8 h; c terminus: a fixed tail appended
Threshold check on protein stability index: at or above 4 gives class 1, strictly below gives class 0.

> print(dat)
                 biopolymer.sequence  classification
1  SEALASTRILKHSPESSRGQCGEN [GLIPR2]         class 1
2    DAKDAARDMNGKSLDGKAIKVEQA [RBMX]         class 1
3   NIAIMTEEPELSPAYLISEAMRRS [GFOD1]         class 0
4    LQVRGYPEEKKEEEGSANRRPEDQ [CHGA]         class 1
5  SATNVTCYYQPAPYVSDGNFSNYY [TENT5C]         class 0

Task: Confirm if protein stability index reported for the sequence SYRIHNGQKLVVPGLLGSMALSNH [FBXO3] is 4 or above.
Output: class 0

Task: Say whether MQEKNPVHVIGVEEPSVGASMLFD [ZNF8] shows protein stability index of 4 or more.
Output: class 1

Task: // inclusive: protein stability index at least 4? input: FPRLNRNKYMVTDGAAYIGNFDWV [PLD5]
Output: class 0

Task: Is protein stability index at least 4? Consider ILENSSQKENVFKCDSLKEECIPE [FAN1]
Output: class 1

Task: I'd appreciate it if you could say whether SPSKSFWTRITCAEEGWSPTPKCL [CFHR2] has protein stability index at least equal to 4.
Output: class 0
